system: HCC1937; assay: normalised response (% of control), CellTox Green; higher = less cell death (100 = DMSO, 0 = benzethonium chloride kill control); details: incubation time: 72 h
Outcome label depends on normalised response relative to 80%: at/above gives class 1, below gives class 0.

Could you verify whether the entry COc1cc2/c(=N/c3ccc(Br)cc3F)nc[nH]c2cc1OCC1CCN(C)CC1 [Vandetanib] (1000 nM) shows normalised response of no less than 80%?
class 1

Could you verify whether the entry CCn1c(-c2nonc2N)nc2cnc(Oc3cccc(NC(=O)c4ccc(OCCN5CCOCC5)cc4)c3)cc21 (1000 nM) shows normalised response of no less than 80%?
class 0

Could you verify whether the entry CNC(=O)c1cc(Oc2ccc(NC(=O)Nc3ccc(Cl)c(C(F)(F)F)c3)c(F)c2)ccn1 [Regorafenib] (100 nM) shows normalised response of no less than 80%?
class 1

Could you verify whether the entry CNC(=O)c1ccc(N2C(=S)N(c3ccc(C#N)c(C(F)(F)F)c3)C(=O)C2(C)C)cc1F [Enzalutamide] (10000 nM) shows normalised response of no less than 80%?
class 0

Could you verify whether the entry Nc1cc(C(F)(F)F)c(-c2cc(N3CCOCC3)nc(N3CCOCC3)n2)cn1 [Buparlisib] (1000 nM) shows normalised response of no less than 80%?
class 1

====

Give measured normalised response for each item. Keep answers brief.
tested on: MDA-MB-468; assay: normalised response (% of control), CellTiter-Glo; higher = more viable cells (100 = DMSO, 0 = benzethonium chloride kill control); settings: incubation time: 72 h
Give the value, in units of %, as a plain number.

Which measured normalised response value corresponds to CNC(=O)c1ccc(N2C(=S)N(c3ccc(C#N)c(C(F)(F)F)c3)C(=O)C2(C)C)cc1F [Enzalutamide] (10000 nM) ?
93.7

Which measured normalised response value corresponds to O=C(/C=C/c1cccc(S(=O)(=O)Nc2ccccc2)c1)NO [Belinostat] (10000 nM) ?
8.88

Which measured normalised response value corresponds to CN(C)CCOc1ccc(/C(=C(/CCCl)c2ccccc2)c2ccccc2)cc1 [Toremifene] (10000 nM) ?
75.5

Which measured normalised response value corresponds to Cc1cc(Nc2cc(CN3CCOCC3)c3nc(C)c(Cc4ccc(Cl)cc4F)n3n2)n[nH]1 [Gandotinib] (10000 nM) ?
28.5

Which measured normalised response value corresponds to Oc1ccc2c(c1)CC[C@H](c1ccccc1)[C@@H]2c1ccc(OCCN2CCCC2)cc1 [Lasofoxifene] (1000 nM) ?
99.7

Which measured normalised response value corresponds to COc1cc2/c(=N/c3ccc(Br)cc3F)nc[nH]c2cc1OCC1CCN(C)CC1 [Vandetanib] (1000 nM) ?
69.9

====

system: DU-4475; assay: normalised viability (% of control), CellTiter-Blue; higher = more viable cells (about 100 = DMSO control); settings: 10 nM; incubation time: 72 h
Property measured: normalised viability (%)
Give the value, in units of %, as a plain number.

Which measured normalised viability value corresponds to COc1cc2/c(=N/c3ccc(Br)cc3F)nc[nH]c2cc1OCC1CCN(C)CC1 ?
110

Which measured normalised viability value corresponds to Nc1cc(C(F)(F)F)c(-c2cc(N3CCOCC3)nc(N3CCOCC3)n2)cn1 ?
98.3

Which measured normalised viability value corresponds to O=C(Nc1ccncc1)C(=O)c1cn(Cc2ccc(Cl)cc2)c2ccccc12 ?
108

Which measured normalised viability value corresponds to CN(C)c1nc(N(C)C)nc(N(C)C)n1 ?
104
